Where do these numbers come from? They come from the Immune Epitope Database (IEDB).

# TESTED ON: HLA-A*29:02
# ASSAY TEXT: IEDB peptide-MHC binding, purified MHC/competitive/radioactivity; filed as Kd, often an IC50 or EC50 that approximates it; bounds were set here for any values at or beyond the usual limits of such assays
# TEST SETTINGS: source organism: Lymphocytic choriomeningitis virus (strain Armstrong)
pKd: −log10 of the molar value.
READOUT: pKd

FSKSRSTLMY: 6.48

----------
# TESTED ON: HLA-B*27:03
# ASSAY TEXT: IEDB peptide-MHC binding, purified MHC/competitive/fluorescence; filed as Kd, often an IC50 or EC50 that approximates it; bounds were set here for any values at or beyond the usual limits of such assays
# TEST SETTINGS: source organism: Giardia intestinalis ATCC 50581
READOUT: Kd

GLYLYRFHV: ≥ 20 µM

----------
# TESTED ON: HLA-B*45:01
# ASSAY TEXT: IEDB peptide-MHC binding, purified MHC/competitive/radioactivity; filed as Kd, often an IC50 or EC50 that approximates it; bounds were set here for any values at or beyond the usual limits of such assays
# TEST SETTINGS: source organism: Lymphocytic choriomeningitis virus (strain Armstrong)
pKd: −log10 of the molar value.
READOUT: pKd

IEVALRTLL: 4.74

----------
# TESTED ON: HLA-A*31:01
# ASSAY TEXT: IEDB peptide-MHC binding, purified MHC/competitive/fluorescence; filed as Kd, often an IC50 or EC50 that approximates it; bounds were set here for any values at or beyond the usual limits of such assays
# TEST SETTINGS: source organism: Escherichia coli F11
READOUT: Kd (µM)

MTYSHHACR: 0.0183

----------
# TESTED ON: HLA-A*11:01
# ASSAY TEXT: IEDB peptide-MHC binding, purified MHC/competitive/radioactivity; filed as Kd, often an IC50 or EC50 that approximates it; bounds were set here for any values at or beyond the usual limits of such assays
# TEST SETTINGS: source organism: SARS coronavirus Tor2
Overview of recorded Kd for various sequences
READOUT: Kd

ATVAYFNMVY: 74.2 nM
VVYRGTTTYK: 15.8 nM
AMPNLYKMQR: 1010 nM
GFNTLKPIFK: 105 nM
DQAMTQMYK: 866 nM
FFASFYYIWK: 243 nM
FQGKFKKIVK: 2880 nM
CMTSCCSCLK: 80.8 nM
SLQVCVQTVR: 7030 nM
QIGEYTFEK: 9.93 nM
QTMLFTMLRK: 4.57 nM
TQLYLGGMSY: 766 nM
LTSMKYFVK: 19.9 nM
ILCFTIKRK: 7710 nM

----------
# TESTED ON: HLA-A*31:01
# ASSAY TEXT: IEDB peptide-MHC binding, purified MHC/direct/fluorescence; filed as Kd, often an IC50 or EC50 that approximates it; bounds were set here for any values at or beyond the usual limits of such assays
# TEST SETTINGS: source organism: Salmonella enterica subsp. enterica serovar Typhi
pKd: −log10 of the molar value.
READOUT: pKd

LPLIVDTAA: ≤ 4.70

----------
# TESTED ON: HLA-B*18:01
# ASSAY TEXT: IEDB peptide-MHC binding, purified MHC/competitive/fluorescence; filed as Kd, often an IC50 or EC50 that approximates it; bounds were set here for any values at or beyond the usual limits of such assays
# TEST SETTINGS: source organism: Salmonella enterica subsp. enterica serovar Typhi
READOUT: Kd

SVIDHIHYM: ≥ 20 µM

----------
# TESTED ON: HLA-A*02:01
# ASSAY TEXT: IEDB peptide-MHC binding, purified MHC/direct/fluorescence; filed as Kd, often an IC50 or EC50 that approximates it; bounds were set here for any values at or beyond the usual limits of such assays
# TEST SETTINGS: source organism: Burkholderia mallei
pKd: −log10 of the molar value.
READOUT: pKd

DAAAPLPPV: ≤ 4.70

----------
# TESTED ON: HLA-A*03:01
# ASSAY TEXT: IEDB peptide-MHC binding, purified MHC/competitive/fluorescence; filed as Kd, often an IC50 or EC50 that approximates it; bounds were set here for any values at or beyond the usual limits of such assays
# TEST SETTINGS: source organism: Canarypox virus
READOUT: Kd (nM)

SVYGLMGFH: 29.2

----------
# TESTED ON: HLA-B*39:01
# ASSAY TEXT: IEDB peptide-MHC binding, purified MHC/competitive/fluorescence; filed as Kd, often an IC50 or EC50 that approximates it; bounds were set here for any values at or beyond the usual limits of such assays
# TEST SETTINGS: source organism: Mycobacterium tuberculosis variant bovis BCG str. Pasteur 1173P2
READOUT: Kd (nM)

YPARVKCAL: 22.9

----------
# TESTED ON: HLA-A*03:01
# ASSAY TEXT: IEDB peptide-MHC binding, purified MHC/competitive/fluorescence; filed as Kd, often an IC50 or EC50 that approximates it; bounds were set here for any values at or beyond the usual limits of such assays
# TEST SETTINGS: source organism: Escherichia coli str. K-12 substr. DH10B
pKd: −log10 of the molar value.
READOUT: pKd

QVIFKCVPK: 5.97

----------
# TESTED ON: HLA-A*26:01
# ASSAY TEXT: IEDB peptide-MHC binding, purified MHC/competitive/fluorescence; filed as Kd, often an IC50 or EC50 that approximates it; bounds were set here for any values at or beyond the usual limits of such assays
# TEST SETTINGS: source organism: Kurkino virus
READOUT: Kd

NSIPAVIGY: 420 nM

----------
# TESTED ON: HLA-B*18:01
# ASSAY TEXT: IEDB peptide-MHC binding, purified MHC/competitive/fluorescence; filed as Kd, often an IC50 or EC50 that approximates it; bounds were set here for any values at or beyond the usual limits of such assays
# TEST SETTINGS: source organism: Entamoeba histolytica HM-1:IMSS
READOUT: Kd

RSLVCLAPK: ≥ 20 µM

----------
# TESTED ON: HLA-B*58:01
# ASSAY TEXT: IEDB peptide-MHC binding, purified MHC/direct/fluorescence; filed as Kd, often an IC50 or EC50 that approximates it; bounds were set here for any values at or beyond the usual limits of such assays
# TEST SETTINGS: source organism: Influenza A virus (A/chicken/Hunan/fg/2004(H5N1))
READOUT: Kd

YSHGTGTGY: 0.905 µM

----------
# TESTED ON: HLA-B*35:01
# ASSAY TEXT: IEDB peptide-MHC binding, purified MHC/direct/fluorescence; filed as Kd, often an IC50 or EC50 that approximates it; bounds were set here for any values at or beyond the usual limits of such assays
# TEST SETTINGS: source organism: Bacillus cereus 03BB108
READOUT: Kd (nM)

KVQEWYLSY: 2060

----------
# TESTED ON: HLA-B*46:01
# ASSAY TEXT: IEDB peptide-MHC binding, purified MHC/competitive/fluorescence; filed as Kd, often an IC50 or EC50 that approximates it; bounds were set here for any values at or beyond the usual limits of such assays
# TEST SETTINGS: source organism: Escherichia coli 536
READOUT: Kd

RAMDVYCHR: ≥ 20 µM

----------
# TESTED ON: HLA-B*07:02
# ASSAY TEXT: IEDB peptide-MHC binding, purified MHC/direct/fluorescence; filed as Kd, often an IC50 or EC50 that approximates it; bounds were set here for any values at or beyond the usual limits of such assays
# TEST SETTINGS: source organism: Ebola virus - Eckron (Zaire, 1976)
READOUT: Kd (µM)

VVRVRRELL: 8

----------
# TESTED ON: HLA-B*15:17
# ASSAY TEXT: IEDB peptide-MHC binding, purified MHC/competitive/fluorescence; filed as Kd, often an IC50 or EC50 that approximates it; bounds were set here for any values at or beyond the usual limits of such assays
# TEST SETTINGS: source organism: Salmonella enterica subsp. enterica serovar Typhi
pKd: −log10 of the molar value.
READOUT: pKd

SVIDHIHYM: 7.30

----------
# TESTED ON: HLA-B*08:02
# ASSAY TEXT: IEDB peptide-MHC binding, purified MHC/direct/fluorescence; filed as Kd, often an IC50 or EC50 that approximates it; bounds were set here for any values at or beyond the usual limits of such assays
# TEST SETTINGS: source organism: Variola virus
pKd: −log10 of the molar value.
READOUT: pKd

IHIPGDTLF: ≤ 4.70

----------
# TESTED ON: HLA-B*08:01
# ASSAY TEXT: IEDB peptide-MHC binding, purified MHC/direct/fluorescence; filed as Kd, often an IC50 or EC50 that approximates it; bounds were set here for any values at or beyond the usual limits of such assays
# TEST SETTINGS: source organism: Ebola virus - Eckron (Zaire, 1976)
READOUT: Kd (µM)

VVRVRRELL: 6
